Recorded melting point, one value per entry.

COMPOUND	VALUE_OBSERVED
COc1cnc(Cl)nc1NS(=O)(=O)c1ccc(Cl)s1 [Example 11]	201 to 202 °C

Prompt: Find the recorded melting point belonging to O=S(=O)(Nc1nnc(Cl)cc1OCc1cccnc1)c1cccc(Cl)c1Cl [Example 3] and report it.
Response: 216 to 217 °C

Prompt: I would be grateful if you could share the reported melting point for COc1cncnc1NS(=O)(=O)c1cccc(Cl)c1Cl [Example 8] .
Response: 278 to 279 °C

Prompt: # input compound: COc1cnc(C(F)(F)F)nc1NS(=O)(=O)c1cccc(Cl)c1Cl [Example 10] ; wanted: its melting point
Response: 190 to 191 °C

Prompt: Tell me the measured melting point of COc1ncc(NS(=O)(=O)c2cccc(Cl)c2Cl)c(OC)n1 [Example 5] , please.
Response: 124 to 126 °C

Prompt: Name the recorded melting point for COc1cc(Cl)nnc1NS(=O)(=O)c1ccc(Cl)s1 [Example 13] .
Response: 120 to 122 °C

---

Below, each entry is listed with its recorded melting point.

Before answering, review these 4 worked examples.
MOLECULE	MEASURED_METRIC	VALUE_OBSERVED
COc1cnc(C)nc1NS(=O)(=O)c1ccc(Cl)s1 [Example 12]	melting point	249 to 250 °C
COc1cnc(Cl)nc1NS(=O)(=O)c1cccc(Cl)c1Cl [Example 7]	melting point	244 to 245 °C
COc1ccnnc1NS(=O)(=O)c1cccc(Cl)c1Cl [Example 1]	melting point	210 to 211 °C
COc1ncncc1NS(=O)(=O)c1cccc(Cl)c1Cl [Example 6]	melting point	204 to 211 °C

Prompt: Would you mind telling me what melting point value was observed for COc1cc(Cl)nnc1NS(=O)(=O)c1cccc(Cl)c1Cl [Example 2] ?
Response: 226 to 227 °C
